tested.on: T1, Dimeric fibrinogen-like domain of monkey (Macca fascicularis) Ang-2 conjugated to human IgG1 (monkey (Macca fascicularis))
T1 construct: also called Dimeric Monkey Ang-2FD; Monkey Ang-2FD-hFc
assay: SPR, antibody captured, room temp
Reported Kd values for a set of binders
Write your answer as a measured quantity: the number, then the unit.

Below are worked cases with known answers.
Exercise: # lookup: Kd of H2M743N (antibody, V domains shown) VH: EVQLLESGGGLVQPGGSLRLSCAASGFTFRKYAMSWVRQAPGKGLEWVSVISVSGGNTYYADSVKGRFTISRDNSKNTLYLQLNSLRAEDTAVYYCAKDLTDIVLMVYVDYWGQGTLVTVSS VL: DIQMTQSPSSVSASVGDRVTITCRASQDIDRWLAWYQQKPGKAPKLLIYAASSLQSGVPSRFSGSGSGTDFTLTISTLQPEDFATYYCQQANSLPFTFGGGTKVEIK
Solution: 0.234 nM

Exercise: Next: H2M750N (antibody, V domains shown) VH: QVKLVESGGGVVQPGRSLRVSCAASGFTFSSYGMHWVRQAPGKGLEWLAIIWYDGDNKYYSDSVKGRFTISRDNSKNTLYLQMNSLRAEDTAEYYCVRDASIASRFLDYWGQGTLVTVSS VL: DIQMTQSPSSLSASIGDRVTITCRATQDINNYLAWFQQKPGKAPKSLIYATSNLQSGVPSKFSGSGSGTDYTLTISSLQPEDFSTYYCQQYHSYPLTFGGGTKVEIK
Solution: 1.47 nM

Exercise: Next: H1M724N (antibody, V domains shown) VH: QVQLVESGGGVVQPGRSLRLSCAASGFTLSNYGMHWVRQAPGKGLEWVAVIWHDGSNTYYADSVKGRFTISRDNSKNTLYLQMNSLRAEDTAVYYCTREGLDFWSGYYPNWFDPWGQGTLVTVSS VL: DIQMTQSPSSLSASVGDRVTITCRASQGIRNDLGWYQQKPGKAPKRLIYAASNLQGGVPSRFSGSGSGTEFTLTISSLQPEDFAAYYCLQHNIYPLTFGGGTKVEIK
Solution: 0.73 nM

Next binder, Kd to be filled in.
Exercise: # lookup: Kd of H2M730N (antibody, V domains shown) VH: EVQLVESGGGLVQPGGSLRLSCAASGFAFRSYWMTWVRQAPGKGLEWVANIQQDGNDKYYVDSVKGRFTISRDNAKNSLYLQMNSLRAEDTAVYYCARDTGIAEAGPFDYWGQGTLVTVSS VL: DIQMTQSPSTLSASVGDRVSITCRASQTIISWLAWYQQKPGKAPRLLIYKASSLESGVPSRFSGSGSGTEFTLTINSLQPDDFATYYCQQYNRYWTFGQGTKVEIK
Solution: 0.842 nM
